The reported numbers originate from patent US7204974B2.

Experiment: Polarity of lipids
Assay type: physicochemical
Conditions: lipids with a polarity of at most 30 mN/m
Outcome: Yes for Polarity mN/m of at least 20 mN/m; No for anything lower.

Study these solved cases before continuing.
CCCCOC(=O)CCCCC(=O)OCCCC [Cetiol B, Dibutyl Adipate] = No
CCCCCCCCCCCCCC(=O)OCC(CCCCCCCC)CCCCCCCCCC (stereo not drawn) [M.O.D., Octyldodecyl Myristate] = Yes
CCCCCCCCCCCCCCCCCCOC(=O)CCCCCC [Tegosoft SH, Stearyl Heptanoate] = No
CCCCCCCCCCCCCCCCCC(=O)OC(C)C [Isopropyl stearate, Isopropyl Stearate] = Yes

Switching to the query record.
Asked: Confirm if Polarity mN/m reported for the compound CCCCCCC(CO)CCCC (stereo not drawn) is 20 mN/m or above.
Given back: No
